Assay Protocol: Inhibition of Escherichia coli induced PI3Kinase dependent leukocyte migration in mouse peritonitis model at 100 mg/kg, po after 1 hr
Type: functional
Property Name: inhibition in vivo at 100 mg/kg (%)
Give bare numbers, in %.

[
  {
    "Smiles Notation": "Cc1ccc(CCN2C(=O)COc3ccc(/C=C4\\SC(=S)NC4=O)cc32)cc1",
    "inhibition in vivo at 100 mg/kg, %": 48.1
  },
  {
    "Smiles Notation": "O=C1NC(=S)S/C1=C\\c1ccc2c(c1)N(CCc1ccc(Cl)cc1)C(=O)CO2",
    "inhibition in vivo at 100 mg/kg, %": 25.6
  },
  {
    "Smiles Notation": "COc1ccc(CCN2C(=O)COc3ccc(/C=C4\\SC(=S)NC4=O)cc32)cc1",
    "inhibition in vivo at 100 mg/kg, %": 43.7
  }
]

Give one value of inhibition in vivo at 100 mg/kg per listed compound.
1. O=C1NC(=S)S/C1=C\c1ccc2c(c1)N(CCc1cccc(Cl)c1)C(=O)CO2
2. O=C1NC(=S)S/C1=C\c1ccc2c(c1)N(CCc1ccc(C(F)(F)F)cc1)C(=O)CO2

1. 41.3
2. 36.9

Just for reference, ChEMBL document CHEMBL1138417 is where these values come from.
